These data points were gathered from patent US9107415B2.

# Tested on: Avena fatua (AVEFA)
# measurement_protocol: Biological Example 1 glasshouse screen, post-emergence herbicidal activity
# Type: in vivo
# conditions_used: 312 h, application rate 250 g/ha, evaluated after 13 days, read-out: AVEFA percentage phytotoxicity
recorded_endpoint: pest or weed control at 250 g/ha (%)
State the answer as a number, implicitly in %.

I have this molecule here, CC#Cc1cc(C)c(C2=C(O)CC(Cc3ccc(C(C)=O)cn3)C2=O)c(C)c1 (stereo not drawn) , and I need its recorded pest or weed control at 250 g/ha.
80

I have this molecule here, CC#Cc1cc(C)c(C2C(=O)CC(Cc3ccc(C#N)cc3)C2=O)c(C)c1 (stereo not drawn) , and I need its recorded pest or weed control at 250 g/ha.
80

I have this molecule here, CC#Cc1cc(C)c(C2=C(O)CC(Cc3cccc(C)n3)C2=O)c(C)c1 (stereo not drawn) , and I need its recorded pest or weed control at 250 g/ha.
100

I have this molecule here, CC#Cc1cc(C)c(C2=C(O)CC(CC3CCOCC3)C2=O)c(C)c1 (stereo not drawn) , and I need its recorded pest or weed control at 250 g/ha.
100

I have this molecule here, CC#Cc1cc(C)c(C2=C(O)CC(Cc3cccnc3)C2=O)c(C)c1 (stereo not drawn) , and I need its recorded pest or weed control at 250 g/ha.
90

I have this molecule here, C#CCC1CC(=O)C(c2c(C)cc(C#CC)cc2C)C1=O (stereo not drawn) , and I need its recorded pest or weed control at 250 g/ha.
90

I have this molecule here, C#CCC1CC(=O)C(c2c(C)cc(C#CCl)cc2C)C1=O (stereo not drawn) , and I need its recorded pest or weed control at 250 g/ha.
100

I have this molecule here, CC#Cc1cc(C)c(C2=C(O)CC(Cc3cccc(C#N)n3)C2=O)c(C)c1 (stereo not drawn) , and I need its recorded pest or weed control at 250 g/ha.
100

I have this molecule here, CC#Cc1cc(C)c(C2C(=O)CC(Cc3ccn(C)n3)C2=O)c(C)c1 (stereo not drawn) , and I need its recorded pest or weed control at 250 g/ha.
100

I have this molecule here, CC#CCC1CC(=O)C(c2c(C)cc(C#CC)cc2C)C1=O (stereo not drawn) , and I need its recorded pest or weed control at 250 g/ha.
80

I have this molecule here, CC#Cc1cc(C)c(C2=C(O)CC(Cc3ccc(C#N)cn3)C2=O)c(C)c1 (stereo not drawn) , and I need its recorded pest or weed control at 250 g/ha.
90

I have this molecule here, CC#Cc1cc(C)c(C2=C(O)CC(Cc3ccc(C)cn3)C2=O)c(C)c1 (stereo not drawn) , and I need its recorded pest or weed control at 250 g/ha.
100

I have this molecule here, CC#Cc1cc(C)c(C2C(=O)CC(CC#CCl)C2=O)c(C)c1 (stereo not drawn) , and I need its recorded pest or weed control at 250 g/ha.
0

I have this molecule here, CC#Cc1cc(C)c(C2=C(O)C[C@H](Cc3ccccn3)C2=O)c(C)c1 , and I need its recorded pest or weed control at 250 g/ha.
90

I have this molecule here, CC#Cc1cc(C)c(C2C(=O)CC(Cc3ccccn3)C2=O)c(CC)c1 (stereo not drawn) , and I need its recorded pest or weed control at 250 g/ha.
100

I have this molecule here, CC#Cc1cc(C)c(C2C(=O)CC(Cc3ccc(C#N)cn3)C2=O)c(CC)c1 (stereo not drawn) , and I need its recorded pest or weed control at 250 g/ha.
100

I have this molecule here, CC#Cc1cc(C)c(C2C(=O)CC(Cc3ccccc3C#N)C2=O)c(C)c1 (stereo not drawn) , and I need its recorded pest or weed control at 250 g/ha.
80

I have this molecule here, CC#Cc1cc(C)c(C2C(=O)CC(Cc3ccn[nH]3)C2=O)c(C)c1 (stereo not drawn) , and I need its recorded pest or weed control at 250 g/ha.
100
